test system: Enterobacterales; assay: MIC, broth microdilution, CDC/FDA Antibiotic Resistance Isolate Bank (Example 7, Tables 8, 11, 12); assay type: cell-based; settings: Klebsiella pneumoniae, KUB No. 5635, AR Bank # 138; read-out: MIC
Items are presented alongside their recorded MIC.

Would you please look over these solved cases?
C[C@H]1COc2c(N3CCN(C)CC3)c(F)cc3c(=O)c(C(=O)O)cn1c23 [Levofloxacin, levofloxacin] = > 64 µg/mL
O=C(O)c1cn(C2CC2)c2cc(N3CCNCC3)c(F)cc2c1=O [Ciprofloxacin, ciprofloxacin] = > 64 µg/mL
NCC[C@H](O)C(=O)N[C@@H]1C[C@H](N)[C@@H](O[C@H]2O[C@H](CN)[C@@H](O)[C@H](O)[C@H]2O)[C@H](O)[C@H]1O[C@H]1O[C@H](CO)[C@@H](O)[C@H](N)[C@H]1O [Amikacin, amikacin] = > 64 µg/mL
CC(C)(O/N=C(\C(=O)N[C@@H]1C(=O)N2C(C(=O)[O-])=C(C[N+]3(CCNC(=O)c4ccc(O)c(O)c4Cl)CCCC3)CS[C@H]12)c1csc(N)n1)C(=O)O [Cefiderocol, cefiderocol] = 1 µg/mL

--- query ---
Q: Complete the entry with MIC for CO/N=C(\C(=O)N[C@@H]1C(=O)N2C(C(=O)[O-])=C(C[n+]3ccn4ncccc43)CS[C@H]12)c1nsc(N)n1 [Cefozopran, cefozopran]
Ans: > 64 µg/mL
